Experiment: NCI Yeast Anticancer Drug Screen. Data for the sgs1 mgt1 strain (AID 161);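 also: 0% = growth of cultures given vehicle only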
Conditions: S. cerevisiae sgs1 mgt1 strain, at 50.0 µM, hits give high values
This is part of a sample that, as a whole, favours compounds with a hit. Of some 79,000 tested, about 15% had one in any assay.
Reported growth inhibition is given for each of the following compounds.
// return numeric value only (unit: %, not printed)

c1ccc(C(c2ccccc2)c2cc(-c3cc(C(c4ccccc4)c4ccccc4)[nH]n3)n[nH]2)cc1 ... -7.55
Cc1cccc(-n2c(N)c(-c3nc4ccccc4[nH]3)sc2=S)c1 ... 13.4
Cc1cc[n+](CC(=O)CC(O)(C(F)(F)F)C(F)(F)F)cc1 ... 15.2

For CCCSc1ncnc2c1ncn2COC(=O)NC , what is its reported growth inhibition?
5.2

For CC1=CC(=O)[C@@H]2C[C@H]1C2(C)C , what is its reported growth inhibition?
-33.9

For O=C1CC[C@H]2[C@@H]3N1c1ccccc1[C@@]31CCN3C/C(=C/CBr)[C@@H]2C[C@H]31 , what is its reported growth inhibition?
6.25

For O=C1C(=Cc2ccc(Cl)c(Cl)c2)C([O-])=C([P+](c2ccccc2)(c2ccccc2)c2ccccc2)C([O-])=C1[P+](c1ccccc1)(c1ccccc1)c1ccccc1 , what is its reported growth inhibition?
-7.05

For CN1C(=O)CC(c2cccc(C3CC(=O)N(C)C3=O)n2)C1=O (stereo not drawn) , what is its reported growth inhibition?
-17.6

For CN(NC(=O)Nc1cccc2ccccc12)c1ccccc1 , what is its reported growth inhibition?
14.7

For CS(=O)(=O)OCCCCOS(C)(=O)=O , what is its reported growth inhibition?
8.55

----------
Assay: NCI Yeast Anticancer Drug Screen. Data for the rad50 strain (AID 155);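 also: 0% = growth of vehicle-only cultures of the same strain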
Conditions: S. cerevisiae rad50 strain growth inhibition; at 50.0 µM
Compounds without any hit were thinned out: in the full panel of roughly 79,000, 15% have a hit. Activity calls are given as the source filed them. Cut-off read from the data, not from the text of the source: active = growth inhibition above about 70%; inactive = the rest.
Outcomes you can answer with include only these: active, inactive

// below: answered compounds
COc1ccc(C(=O)Cc2nc3nnc(N)n3nc2CC(=O)c2ccc(OC)cc2)cc1 ... inactive
CC(O)CNC(=O)C(C)O (stereo not given) ... inactive

Identify the outcome logged in this assay for the compound shown: CC(C)COCC1COC2(OCC(C)(C)C2OC(=O)Nc2ccccc2)O1 (stereo not given)
inactive

Identify the outcome logged in this assay for the compound shown: CC(C)CC(=O)CC(=O)C(C)(C)C.CC(C)CC(=O)CC(=O)C(C)(C)C.CC(C)CC(=O)CC(=O)C(C)(C)C.CC(C)CC(=O)CC(=O)C(C)(C)C.[Ce]
inactive

Identify the outcome logged in this assay for the compound shown: Cc1ccc2ccccc2c1Cc1c(C=O)[nH]c(=S)[nH]c1=O
active

Identify the outcome logged in this assay for the compound shown: CCCCNC(=O)C1C(=O)N(CCCC)C(=O)/C1=N\N (stereo not given)
inactive

Identify the outcome logged in this assay for the compound shown: Cn1c(=O)nc2n(C)c3ccccc3cc-2c1=O
inactive

Identify the outcome logged in this assay for the compound shown: Cc1nc2ccccc2nc1CCC(=O)O
inactive

Identify the outcome logged in this assay for the compound shown: COC(=O)/C(=N\NC(C)(C)C)C(C(=O)C(=O)Nc1cc(C)ccc1C)c1nc2ccccc2[nH]c1=O (stereo not given)
inactive

Identify the outcome logged in this assay for the compound shown: CC(=O)N/N=C/c1ccc([N+](=O)[O-])s1
inactive

----------
Assay: NCI Yeast Anticancer Drug Screen. Data for the mlh1 rad18 strain (AID 175)
Conditions: S. cerevisiae mlh1 rad18 strain growth inhibition; at 50.0 µM; hits give high values
Compounds without any hit were thinned out: in the full panel of roughly 79,000, 15% have a hit.
The label depends only on growth inhibition: class 1 if it is at least 10%, class 0 if it is smaller.

CC(C)CCCC(C)C1CCC2C3C(=O)C=C4C=CCCC4(C)C3CCC12C (configuration not stated) ... class 1
CCOC(=O)NNC(N)=O ... class 0
CCc1n[nH]c(=O)n1/N=C/c1c(O)ccc2ccccc12 ... class 1
CCCCN(CCCC)CCNC(c1ccc(Cl)cc1)c1ccc(OC)cc1 (configuration not stated) ... class 1
CCOC(=O)Sc1nccn1C ... class 0
BrCCCOc1ccccc1 ... class 0

In plain terms: is recorded growth inhibition at least 10% for O.O.O=c1[nH]cc(CO)c(=O)[nH]1.[NH2-].[NH2-].[Pt+2] ?
class 0

In plain terms: is recorded growth inhibition at least 10% for Nc1ccccc1S(=O)O ?
class 1

In plain terms: is recorded growth inhibition at least 10% for COC(=O)C1Cc2cc(OC)c(OC)cc2C(c2ccc(OC)c(OC)c2)C1C(N)=O (configuration not stated) ?
class 0

----------
Reported growth inhibition is given for each of the following compounds.
Test: NCI Yeast Anticancer Drug Screen. Data for the cln2 rad14 strain (AID 165);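 also: 0% = growth equal to vehicle treated cultures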
Conditions: S. cerevisiae cln2 rad14 strain, at 50.0 µM, hits give high values
About 79,000 compounds went through this panel and 15% of them were active in at least one assay; those are over-represented in the sample as a whole.
// return numeric value only (unit: %, not printed)

CCC(C)(O)C(C)(O)CC (stereo not drawn) ... 17.6
CCCCCCCOc1ccc(C2=C(c3ccccc3)C(=O)C(c3ccccc3)=C2c2ccccc2)cc1 ... 15.9

For Cn1c(=N)n(CC(=O)NC23CC4CC(CC(C4)C2)C3)c2ccccc21 , what is its reported growth inhibition?
2.75

For Cn1c2c(F)cccc2c(=O)c2c(O)cc3c(c21)C=CC(C)(C)O3 , what is its reported growth inhibition?
-17.9

For CCCCCCCC1CCCC1=O (stereo not drawn) , what is its reported growth inhibition?
5.7

For C=CCCCCCCCCCO , what is its reported growth inhibition?
10.8

For CCOC(=O)C(NC(=O)C(CCCCNP(=O)(OCC)OCC)NC(=O)C(C)NC(C)=O)C(C)C (stereo not drawn) , what is its reported growth inhibition?
-25.6

For COC1=CC(=C(\C#N)c2ccccc2)/C=CC/1=N/O , what is its reported growth inhibition?
-2

For O=C1Cc2nc(CO)c(CO)c(CO)c2CO1 , what is its reported growth inhibition?
-2.85

For NC(CCCCO)C(=O)O (stereo not drawn) , what is its reported growth inhibition?
23.1

For C1CSCCSCCSCCSC1 , what is its reported growth inhibition?
-18.3

For CN(C)C(=O)C1C2C=CC(CCC2)C1C(=O)N(C)C (stereo not drawn) , what is its reported growth inhibition?
13.7

For O=C1CCC(O)=C1O , what is its reported growth inhibition?
26.5

----------
Experiment: NCI Yeast Anticancer Drug Screen. Data for the bub3 strain (AID 167)
Settings: S. cerevisiae bub3 mutant strain, at 50.0 µM, hits give high values
Compounds without any hit were thinned out: in the full panel of roughly 79,000, 15% have a hit. Where a SMILES comes first, the peptide text is derived from it. The star is where a group is joined. Trt = c1ccc(C(c2ccccc2)(c2ccccc2)*)cc1; Benzhydryl = c1ccc(C(c2ccccc2)*)cc1; Cbz = O=C(OCc1ccccc1)*
measured property: growth inhibition (%)
// return numeric value only (unit: %, not printed)

Take a look at these entries with their results.
COC(=O)C(Cc1ccccc1)NC(=O)C(Cc1ccccc1)NC(=O)CNC(=O)C(CSC(c1ccccc1)c1ccccc1)NC(=O)C(CSC(c1ccccc1)(c1ccccc1)c1ccccc1)NC(=O)OCc1ccccc1 (stereo not drawn) (Cbz-C(Trt)C(Benzhydryl)GFF-OMe; configuration not given here) ... -9.8
CS(=O)(=O)OC[C@@H]1C2CCC(C2)[C@@H]1COS(C)(=O)=O ... -3.5
CC1=NN(c2ccccc2)C(=O)/C1=C1\SC(c2ccccc2)(c2ccccc2)c2ccccc21 ... 23.2
Cc1ccc(S(=O)(=O)NN=C2CCCCCC2)cc1 ... -12.4
COC(=O)c1ccccc1NC(=O)Nc1ccc(SC)cc1 ... 31.2

For O=Cc1cc(C(=O)c2ccccn2)c2cc(Cl)cc(Cl)c2n1 , what is its reported growth inhibition?
-4.3

For CC(C)(C)c1ccc(SC(=O)Nc2cccc(Cl)c2Cl)cc1 , what is its reported growth inhibition?
24.4

For CC(C)(C)C1CC[C@H]2c3c([nH]c4ccc(Br)cc34)[C@H]3C(=O)N(c4ccccc4)C(=O)[C@H]3[C@H]2C1 (stereo partly drawn) , what is its reported growth inhibition?
-0.15

For COC1=CC(=O)c2nc3ccccc3c3ccnc1c23 , what is its reported growth inhibition?
87.3

For CC(C)(C)c1ccc(SC(=O)NCCCl)cc1 , what is its reported growth inhibition?
-5.4

----------
Assay: NCI Yeast Anticancer Drug Screen. Data for the rad50 strain (AID 155);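 also: 0% = growth of vehicle-only cultures of the same strain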
Settings: S. cerevisiae rad50 strain growth inhibition; at 50.0 µM
Compounds without any hit were thinned out: in the full panel of roughly 79,000, 15% have a hit. Calls of active or inactive are those of the source. Cut-off read from the data, not from the text of the source: active = growth inhibition above about 70%; inactive = the rest.
Outcomes you can answer with include only these: active, inactive

// below: answered compounds
O=C(NCc1ccccc1)NCN1CCOCC1 ... inactive
CN(C)N=Nc1c(F)cccc1F ... inactive
O=C1C[C@H]2CCCC[C@@H]2O1 ... inactive
CCCCCCCCCCCc1cc(=O)n(-c2ccccc2)n1C ... active
C/C(=N/N(C)c1ccccc1)C(C)C ... inactive
C=CCOc1cc(=O)[nH]c2ccccc12 ... inactive

Identify the outcome logged in this assay for the compound shown: C/C(N)=C\c1nc(=O)ccs1
inactive
